Origin of measurements: patent US11731977B2

Assay: Rat cerebrospinal fluid (CSF) pharmacokinetic properties (Example 4)
Format: in vivo
Conditions: male, Sprague-Dawley, CSF / unbound plasma, 1 mg/kg PO, @ 2 h
Property: Kp uu at 2 h
One number for each entry.

Look up Kp uu at 2 h: Fc1ccccc1Cc1nc(-c2nc(C(F)(F)F)n[nH]2)cn2ccnc12 1.4

---

Biological target: sGC enzyme (Homo sapiens, UniProt Q02108+Q02153)
Construct: sGC enzyme activity values in HEK cells, determined by the GloSensor assay; host or cells: HEK293 cells stably expressing GloSensor 40F cGMP biosensor
Sequence (Q02153 whole entry): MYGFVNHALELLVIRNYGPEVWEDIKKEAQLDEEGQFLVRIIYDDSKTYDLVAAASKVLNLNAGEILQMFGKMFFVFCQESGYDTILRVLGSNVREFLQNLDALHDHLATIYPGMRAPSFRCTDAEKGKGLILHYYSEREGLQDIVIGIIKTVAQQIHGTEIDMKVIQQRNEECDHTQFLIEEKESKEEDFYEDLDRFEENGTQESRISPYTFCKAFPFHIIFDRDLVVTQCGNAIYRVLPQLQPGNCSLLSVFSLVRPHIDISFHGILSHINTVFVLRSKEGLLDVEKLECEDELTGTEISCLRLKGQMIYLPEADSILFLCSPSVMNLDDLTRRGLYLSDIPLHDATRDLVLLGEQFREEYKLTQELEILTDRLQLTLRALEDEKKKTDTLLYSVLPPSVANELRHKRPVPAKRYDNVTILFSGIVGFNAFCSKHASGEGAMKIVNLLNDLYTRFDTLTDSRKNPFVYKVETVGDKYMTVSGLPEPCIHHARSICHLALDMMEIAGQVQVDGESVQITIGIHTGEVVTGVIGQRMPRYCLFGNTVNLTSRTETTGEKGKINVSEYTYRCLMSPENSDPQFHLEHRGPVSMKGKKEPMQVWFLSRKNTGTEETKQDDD
Sequence (Q02108 whole entry): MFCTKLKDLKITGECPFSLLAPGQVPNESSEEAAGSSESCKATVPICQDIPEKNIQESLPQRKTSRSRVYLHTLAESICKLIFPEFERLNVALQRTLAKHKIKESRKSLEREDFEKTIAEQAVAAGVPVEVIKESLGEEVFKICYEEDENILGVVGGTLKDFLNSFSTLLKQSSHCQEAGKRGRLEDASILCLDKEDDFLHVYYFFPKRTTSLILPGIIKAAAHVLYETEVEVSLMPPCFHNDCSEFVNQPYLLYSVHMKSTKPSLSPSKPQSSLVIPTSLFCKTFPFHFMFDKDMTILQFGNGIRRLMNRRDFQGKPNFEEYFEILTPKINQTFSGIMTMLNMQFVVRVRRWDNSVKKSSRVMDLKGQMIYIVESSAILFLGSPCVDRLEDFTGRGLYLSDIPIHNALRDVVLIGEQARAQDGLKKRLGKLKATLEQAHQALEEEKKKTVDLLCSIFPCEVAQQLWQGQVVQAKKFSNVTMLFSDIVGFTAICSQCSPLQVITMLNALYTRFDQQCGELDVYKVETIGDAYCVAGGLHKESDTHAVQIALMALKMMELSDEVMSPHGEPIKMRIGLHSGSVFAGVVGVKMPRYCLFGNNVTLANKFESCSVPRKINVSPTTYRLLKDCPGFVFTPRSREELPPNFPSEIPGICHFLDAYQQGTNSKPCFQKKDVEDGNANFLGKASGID
Assay: cGMP GloSensor cell-based assay, 384-well format (Example 2a)
Settings: HEK293 GloSensor 40F cGMP cells; 10 μM DETA-NONOate; 50% of high control (30 μM Compound Y); read-out: Abs EC50
Property: EC50

Smiles Notation: Fc1cccc(Cc2nc(-c3nc(C(F)F)n[nH]3)cn3ccnc23)c1
EC50: 100 to 1000 nM
//
Smiles Notation: Fc1ccccc1Cc1nc(-c2nc(C(F)F)n[nH]2)cn2ncnc12
EC50: ≤ 100 nM

Answer for every listed entry: what is its EC50? The entries follow.
1. Cc1cnc2c(Cc3ccccc3F)nc(-c3nc(C(F)(F)F)n[nH]3)cn12
2. Fc1cccc(Cc2nc(-c3nc(C(F)(F)F)n[nH]3)cn3ccnc23)c1F
3. CCn1nc(-c2cn3ccnc3c(Cc3ccccc3F)n2)nc1C
4. Fc1cccc(F)c1Cc1nc(-c2nc(C(F)F)n[nH]2)cn2ccnc12
5. Cc1n[nH]c(-c2cn3ccnc3c(Cc3ccccc3F)n2)n1

1. ≤ 100 nM
2. ≤ 100 nM
3. 100 to 1000 nM
4. > 1000 nM
5. 100 to 1000 nM

Your task in this section: give EC50 for each listed record.
1. Cc1nc(-c2cn3ccnc3c(Cc3ccccc3F)n2)n(Cc2ccc(F)cc2)n1
2. Fc1ccccc1Cc1nc(-c2nc(C(F)(F)C(F)(F)F)n[nH]2)cn2ccnc12

1: > 1000 nM; 2: ≤ 100 nM
